Taken from patent US9051321B2.

# measuredTarget: HSA (human albumin) (Homo sapiens (Human))
# Sequence (P02768 25-609): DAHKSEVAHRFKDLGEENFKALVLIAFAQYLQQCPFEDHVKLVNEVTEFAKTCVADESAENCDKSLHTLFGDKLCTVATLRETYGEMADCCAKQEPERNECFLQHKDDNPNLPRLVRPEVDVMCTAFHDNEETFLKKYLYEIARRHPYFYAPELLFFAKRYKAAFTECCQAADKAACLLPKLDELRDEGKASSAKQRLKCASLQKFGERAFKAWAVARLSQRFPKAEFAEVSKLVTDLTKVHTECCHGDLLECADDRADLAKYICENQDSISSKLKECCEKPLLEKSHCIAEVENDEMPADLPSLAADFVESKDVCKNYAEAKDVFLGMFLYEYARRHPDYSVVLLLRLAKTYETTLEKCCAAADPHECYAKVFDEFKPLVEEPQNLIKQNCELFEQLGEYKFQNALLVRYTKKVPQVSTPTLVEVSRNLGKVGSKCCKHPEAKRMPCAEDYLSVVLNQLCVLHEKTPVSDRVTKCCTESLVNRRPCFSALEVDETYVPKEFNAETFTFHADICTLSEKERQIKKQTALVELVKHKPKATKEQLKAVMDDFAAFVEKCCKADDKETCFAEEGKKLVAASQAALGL
# testSummary: HSA binding analysis using a chiral HSA column
# Assay type: in vitro ADME
# experimentalSetup: 37° C., pH 7.0, k′=(Tr-T0)/T0
Use 1 as the dividing line for k′ (capacity factor), with the line itself on the true side and lower values as false.

Solved cases (6 shown):
O=C1CCc2cc(/C=C/C(=O)N3CC(OCCc4cccs4)C3)cnc2N1 = true
Cc1c(C2CN(C(=O)/C=C/c3cnc4c(c3)CCC(=O)N4)C2)oc2ccccc12 = true
CCCCOC1CN(C(=O)/C=C/c2cnc3c(c2)CC2(CCN(C)CC2)C(=O)N3)C1 = true
CCCO/N=C(/C)C1CN(C(=O)/C=C/c2cnc3c(c2)CCC(=O)N3)C1 = false
O=C1CCc2cc(/C=C/C(=O)N3CC(c4cc5ccccc5o4)C3)cnc2N1 = true
CN1CCC2(CC1)Cc1cc(/C=C/C(=O)N3CC(c4cc5ccccc5o4)C3)cnc1NC2=O = true

[in] Evaluate Cc1c(C2CN(C(=O)/C=C/c3cnc4c(c3)CC3(CCN(C)CC3)C(=O)N4)C2)oc2ccccc12 : k′ (capacity factor) at minimum 1?
[out] true

[in] Determine whether this compound has k′ (capacity factor) no lower than 1: O=C1CCc2cc(/C=C/C(=O)N3CC(OCc4cccs4)C3)cnc2N1
[out] false

[in] Could you tell me if the measured k′ (capacity factor) of CCCO/N=C(\C)C1CN(C(=O)/C=C/c2cnc3c(c2)CCC(=O)N3)C1 reaches 1 or more?
[out] false
